Target: human glucagon receptor (human), P47871
Sequence (P47871 26-477): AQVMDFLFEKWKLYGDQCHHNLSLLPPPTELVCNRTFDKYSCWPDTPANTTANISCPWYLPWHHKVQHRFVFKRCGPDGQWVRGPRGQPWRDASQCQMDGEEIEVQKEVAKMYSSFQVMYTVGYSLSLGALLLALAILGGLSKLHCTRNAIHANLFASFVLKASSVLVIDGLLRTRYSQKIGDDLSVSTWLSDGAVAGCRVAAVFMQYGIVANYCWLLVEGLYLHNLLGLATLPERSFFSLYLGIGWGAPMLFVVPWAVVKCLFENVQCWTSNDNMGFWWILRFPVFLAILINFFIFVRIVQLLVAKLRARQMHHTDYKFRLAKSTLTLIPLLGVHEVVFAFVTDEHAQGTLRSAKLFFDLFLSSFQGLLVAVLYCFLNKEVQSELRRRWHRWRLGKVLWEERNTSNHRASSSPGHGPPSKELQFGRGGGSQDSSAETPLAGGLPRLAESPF
Experiment: cell-based or functional assay
*1 amine or outer side, *2 acyl side, *3 side chain or, on linkers, in order; H or OH if unused. Where no end group is shown, it is not given here. Side-chain parts run from the residue outwards. [ ]: non-standard residue; d: D form. The star is where a group is joined. C20 diacid = O=C(O)CCCCCCCCCCCCCCCCCCC(=O)*; γGlu = O=C(O)[C@H](CCC(=O)[*:2])N[*:1]; αMeL = CC(C)C[C@](C)(N)C(=O)O; αMeK = C[C@](N)(CCCCN)C(=O)O; AEEA = NCCOCCOCC(=O)O; Aib = CC(C)(N)C(=O)O
Listing of recorded cAMP EC50 (FBS and BSA present) by entry.

[
  {
    "binder": "Y[Aib]QGTFTSDYSILLDKK([AEEA-γGlu-C20 diacid])AQ[Aib]AFIEYLLEGGPSSGAPPPS-NH2 [Example 18]",
    "cAMP EC50 (FBS and BSA present)": "5.71 nM"
  },
  {
    "binder": "Y[Aib]QGTFTSDYSI[αMeL]LDKK([AEEA-AEEA-γGlu-C20 diacid])AQHAFIEYLLEGGPSSGAPPPS-NH2 [Example 7]",
    "cAMP EC50 (FBS and BSA present)": "14.2 nM"
  },
  {
    "binder": "Y[Aib]QGTFTSDYSI[αMeL]LDKK([AEEA-AEEA-γGlu-C20 diacid])AAQAFIEYLLEGGPSSGAPPPS-NH2 [Example 6]",
    "cAMP EC50 (FBS and BSA present)": "1.99 nM"
  },
  {
    "binder": "Y[Aib]QGTFTSDYSILLDKK([AEEA-AEEA-γGlu-C20 diacid])AQ[Aib]AFIEYLLEGGPSSGAPPPS-NH2 [Example 16]",
    "cAMP EC50 (FBS and BSA present)": "13.2 nM"
  }
]

Inquiry: Requested read-out: cAMP EC50 (FBS and BSA present). Entry: Y[Aib]QGTFTSDYSI[αMeL]LDKK([AEEA-AEEA-γGlu-C20 diacid])AQ[αMeK]AFIEYLLEGGPSSGAPPPS-NH2 [Example 3]
Reply text: 8.03 nM

Inquiry: Using the record for Y[Aib]QGTFTSDYSI[αMeL]LDKK([AEEA-γGlu-C20 diacid])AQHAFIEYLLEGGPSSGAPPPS-NH2 [Example 10] , report its cAMP EC50 (FBS and BSA present).
Reply text: 8.42 nM
